Reported IC50 values for the following binders.
# EXPERIMENTAL_SYSTEM: T1, purified recombinant MHC II protein, allele DRB1*0101 (human)
# T1 construct: bought from Benaroya Research Institute; also called MHC-II DR molecule
# RUN_DESCRIPTION: MHC II competition binding assay
MEASURED_ENDPOINT: IC50

BINDER: DYVEAGQQIGWSGSTGY (synthetic mutated peptide of the lysostaphin catalytic domain; also called 95-99) [cluster 4 peptide with Lys95Glu/Ile99Gln]
MEASURED_ENDPOINT: IC50
EXPERIMENTAL_VALUE: < 0.01 µM
--
BINDER: DYVKAGQIIGWSGSTGY [cluster 4 wild-type (C4WT) epitope peptide]
MEASURED_ENDPOINT: IC50
EXPERIMENTAL_VALUE: < 0.01 µM
--
BINDER: DHVKAGQQIGWSGSTGY (synthetic mutated peptide of the lysostaphin catalytic domain; also called 93_99) [cluster 4 peptide with Tyr93His/Ile99Gln]
MEASURED_ENDPOINT: IC50
EXPERIMENTAL_VALUE: < 0.01 µM
--
BINDER: DHVKAGQIIGWSGSTGY (synthetic mutated peptide of the lysostaphin catalytic domain; also called Y93H) [cluster 4 peptide with Tyr93His]
MEASURED_ENDPOINT: IC50
EXPERIMENTAL_VALUE: 103 µM
--
BINDER: DHVEAGQIIGWSGSTGY (synthetic mutated peptide of the lysostaphin catalytic domain; also called 93_95) [cluster 4 peptide with Tyr93His/Lys95Glu]
MEASURED_ENDPOINT: IC50
EXPERIMENTAL_VALUE: 9.98 µM
--
BINDER: DYVKAGQQIGWSGSTGY (synthetic mutated peptide of the lysostaphin catalytic domain; also called I99Q) [cluster 4 peptide with Ile99Gln]
MEASURED_ENDPOINT: IC50
EXPERIMENTAL_VALUE: 31.7 µM
--
BINDER: DYVEAGQIIGWSGSTGY (synthetic mutated peptide of the lysostaphin catalytic domain; also called K95E) [cluster 4 peptide with Lys95Glu]
MEASURED_ENDPOINT: IC50
EXPERIMENTAL_VALUE: < 0.01 µM
